Values compiled from patent US20240317847A1.

target_entity: T1, human IL-11 (human, UniProt P20809 22-199)
T1 construct: bought from Invigate; also called hIL-11; hIL11
T1 sequence: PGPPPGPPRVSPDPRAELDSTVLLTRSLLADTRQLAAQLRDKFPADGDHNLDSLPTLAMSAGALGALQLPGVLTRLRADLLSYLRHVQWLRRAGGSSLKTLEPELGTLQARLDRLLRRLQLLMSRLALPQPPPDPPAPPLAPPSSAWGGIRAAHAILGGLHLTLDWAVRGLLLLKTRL
assay_remarks: SPR, antibody captured, IL-11 as analyte
Description: Antibodies were captured via anti-mouse Fc IgGs (“Mouse antibody capture kit, Order No. BR100383, Cytiva) covalently amine coupled to a Series S CM5 sensor chip (Cytiva). The amine coupling was carried out according to the manufacturer's instructions using 1-ethyl-3-(3-dimethylaminopropyl) carbodiimide hydrochloride (EDC), N-hydroxysuccinimide (NHS) and ethanolamine HCl, pH 8.5 (“Amine Coupling Kit” BR-1000-50, Cytiva.). […]
metric: Kd
Remember to quote the unit after the number.

Asked: Any idea what its Kd is? The binder is TPP-26310 (antibody, V domains shown, constant regions not restated) VH: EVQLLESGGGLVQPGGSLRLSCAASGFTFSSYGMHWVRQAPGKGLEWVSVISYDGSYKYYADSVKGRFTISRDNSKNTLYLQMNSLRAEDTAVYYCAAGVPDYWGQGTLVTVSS VL: QSVLTQPPSASGTPGQRVTISCTGSSSNIGAGYDVHWYQQLPGTAPKLLIYSNNERPWGVPDRFSGSKSGTSASLAISGLRSEDEADYYCAAWDDSLNGPVFGGGTKLTVL
Given back: 13 nM

Asked: Also TPP-26317 (antibody, V domains shown, constant regions not restated) VH: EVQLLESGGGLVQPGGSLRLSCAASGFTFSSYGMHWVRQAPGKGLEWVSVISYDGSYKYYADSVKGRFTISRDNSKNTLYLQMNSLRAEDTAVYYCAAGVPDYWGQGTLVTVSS VL: QSVLTQPPSASGTPGQRVTISCTGSSSNIGAEYDVHWYQQLPGTAPKLLIYSNNERPSGVPDRFSGSKSGTSASLAISGLRSEDEADYYCAAWDDSLNGPVFGGGTKLTVL ?
Given back: 8.1 nM

Asked: Also TPP-26326 (antibody, V domains shown, constant regions not restated) VH: EVQLLESGGGLVQPGGSLRLSCAASGFTFSYYGMHWVRQAPGKGLEWVSVISYDGSYKYYADSVKGRFTISRDNSKNTLYLQMNSLRAEDTAVYYCAAGVPDYWGQGTLVTVSS VL: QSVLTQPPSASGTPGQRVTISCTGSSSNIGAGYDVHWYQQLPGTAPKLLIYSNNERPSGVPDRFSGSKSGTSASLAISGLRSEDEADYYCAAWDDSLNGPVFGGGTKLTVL ?
Given back: 9.3 nM
